- TARGET: human glucagon receptor (human) (UniProt P47871)
- Sequence (P47871 26-477): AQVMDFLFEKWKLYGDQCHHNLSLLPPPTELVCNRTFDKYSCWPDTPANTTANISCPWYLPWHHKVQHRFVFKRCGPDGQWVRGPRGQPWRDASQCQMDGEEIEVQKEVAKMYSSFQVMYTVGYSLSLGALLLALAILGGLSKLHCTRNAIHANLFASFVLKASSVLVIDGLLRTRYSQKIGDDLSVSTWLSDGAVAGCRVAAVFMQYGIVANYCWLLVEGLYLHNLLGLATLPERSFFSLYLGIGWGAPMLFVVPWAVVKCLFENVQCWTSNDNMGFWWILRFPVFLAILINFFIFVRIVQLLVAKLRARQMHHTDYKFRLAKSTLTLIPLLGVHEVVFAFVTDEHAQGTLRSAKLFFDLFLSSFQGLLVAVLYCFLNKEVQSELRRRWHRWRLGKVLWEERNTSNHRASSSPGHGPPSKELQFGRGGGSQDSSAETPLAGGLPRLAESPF
- ASSAY_COMMENT: cell-based or functional assay
Starred links: 1 amine or outer side, 2 acyl side, 3 side chain; linkers in the order of their positions; H or OH if unused. Non-standard residues stand in square brackets, D forms with d. Groups on a side chain read outwards from the residue. No end group written: not given here. *: point of attachment. C20 diacid = O=C(O)CCCCCCCCCCCCCCCCCCC(=O)*; γGlu = O=C(O)[C@H](CCC(=O)[*:2])N[*:1]; αMeL = CC(C)C[C@](C)(N)C(=O)O; AEEA = NCCOCCOCC(=O)O; Aib = CC(C)(N)C(=O)O
Decide using cAMP Rel EC50 (in the presence of 1% HSA) alone. Strictly below 300 nM: 1. Equal to or above 300 nM: 0.

Illustrative cases are given below, each with its answer.
[[record]]
binder = "YXQGTFTSDFSXXLDKKAQXAFIEYLLEAGPSSGXPPPSGS (non-natural residues; lipidated Lys (AEEA)2-γGlu-C18 diacid; C-term amide; synthetic construct; SITE 2: note = 2-Aminoisobutyric Acid; SITE 12: note = L-ornithine; SITE 13: note = …; SITE 17: note = Lysine is chemically modified through conjugation of the epsilon-amino group of the Lysine side chain with (2-[2-(2-Amino-ethoxy)-ethoxy]-acetyl)2-(gamma-Glu)) [Example 254]"
classification = 0

[[record]]
binder = "YXQGTXTSDXSIXLDXKAQXEFIEXLQEGGPSSGAPPPSGS (non-natural residues; acylated Lys; C-terminal amide; synthetic construct; SITE 2: note = 2-Aminoisobutyric Acid; SITE 6: note = alpha-methyl-2-fluoro-L-phenylalanine; SITE 10: note = 3-(4-Pyridyl)-L-alanine; SITE 13: note = alpha-methyl-leucine; SITE 16: note = L-ornithine; SITE 17: note = Lysine is chemically modified through conjugation of the epsil) [Example 643]"
classification = 0


Incoming: Lab note: cAMP Rel EC50 (in the presence of 1% HSA) threshold 300 nM. Does this binder come in strictly under it? YXQGTXTSDXXIXLDXKAQXEFIEXLIEGGPPSXEPPPSGSE (non-natural residues, acylated Lys (AEEA-γGlu-C18 diacid), C-terminal amide; synthetic construct; SITE 2: note = 2-Aminoisobutyric Acid; SITE 6: note = alpha-methyl-2-fluoro-L-phenylalanine; SITE 10: note = 3-(4-Pyridyl)-L-alanine; SITE 11: note = alpha-methyl-L-serine; SITE 13: note = alpha-methyl-leucine; SITE 16: note = L-ornithine; SITE 17: note = Lysine is chemically mo) [Example 1200]
Outgoing: 1

Incoming: Here's an entry: Y[Aib]QGTFTSDYSI[αMeL]LDKK([AEEA-γGlu-C20 diacid])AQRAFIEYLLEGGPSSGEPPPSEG-NH2 [Example 289] . Is its cAMP Rel EC50 (in the presence of 1% HSA) below 300 nM?
Outgoing: 0

Incoming: Does this binder meet the criterion cAMP Rel EC50 (in the presence of 1% HSA) < 300 nM? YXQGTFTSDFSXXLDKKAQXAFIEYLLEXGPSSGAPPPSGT (C-terminal amide; lysine acylated with AEEA-(γ-Glu)2-C18 diacid; synthetic construct; SITE 2: note = 2-Aminoisobutyric Acid; SITE 12: note = L-ornithine; SITE 13: note = alpha-methyl-leucine; SITE 17: note = Lysine is chemically modified through conjugation of the epsilon-amino group of the Lysine side chain with (2-[2-(2-Amino-ethoxy)-ethoxy]-acetyl)-(gamma-Glu)) [Example 278]
Outgoing: 1

Incoming: Hello, I'm reviewing records and need to know if cAMP Rel EC50 (in the presence of 1% HSA) of YXQGTXTSDXXIXLDXKAQXEFIEXLIEGGPPSXXPPPSGSE (non-natural residues; lysine acylated AEEA-γGlu-C18 diacid; C-terminal amide; synthetic construct; SITE 2: note = 2-Aminoisobutyric Acid; SITE 6: note = alpha-methyl-2-fluoro-L-phenylalanine; SITE 10: note = 3-(4-Pyridyl)-L-alanine; SITE 11: note = alpha-methyl-L-serine; SITE 13: note = alpha-methyl-leucine; SITE 16: note = L-ornithine; SITE 17: note = Lysine is chemically mo) [Example 1198] is below 300 nM. Could you check?
Outgoing: 0
